List of CI (Combination Index) values.
# Tested on: U-266 Multiple Myeloma cell line
# experiment notes: DIMSCAN cytotoxicity, fenretinide + L-threo-sphinganines 3:1 (Example B3)
# Assay type: cell-based, human
# experimental setup: 4-HPR 9 μM + L-threo-sphinganine 3 μM, 96 h
Reply: number alone, nothing else.

CCCCCCCCCCCC[C@H](O)[C@@H](N)CO [C15]; 0.9

Query :: Bench note: what CI (Combination Index) did CCCCCCCCCCCCCC[C@H](O)[C@@H](N)CO [C17, (2S,3S)-2-amino-1,3-heptadecanediol] show?
Result :: 0.4

###

List of Fa values.
# Tested on: OE-19 esophageal adenocarcinoma cell line
# experiment notes: DIMSCAN cytotoxicity, fenretinide + L-threo-sphinganines 3:1 (Example B19)
# Assay type: cell-based, human
# experimental setup: 4-HPR 1.5 μM + L-threo-sphinganine 0.5 μM

CCCCCCCCCCCCCCCC[C@H](O)[C@@H](N)CO [C19, (2S,3S)-2-amino-1,3-nonadecanediol]; 0.094
CCCCCCCCCCCCCC[C@H](O)[C@@H](N)CO [C17, (2S,3S)-2-amino-1,3-heptadecanediol]; 0.314
CCCCCCCCCCCCCCCCC[C@H](O)[C@@H](N)CO [C20, (2S,3S)-2-amino-1,3-icosanediol]; 0.352

Query :: Bench note: what Fa did CCCCCCCCCCCCCCC[C@H](O)[C@@H](N)CO [C18, (2S,3S)-2-amino-1,3-octadecanediol, reference compound] show?
Result :: 0.281

Query :: Bench note: what Fa did CCCCCCCCC[C@H](O)[C@@H](N)CO [C12] show?
Result :: 0.345

###

List of Fa values.
# Test system: LNCaP prostate adenocarcinoma cell line
# experiment notes: DIMSCAN cytotoxicity, fenretinide + L-threo-sphinganines 3:1 (Example B16)
# Assay type: cell-based, human
# experimental setup: LNCaP.FGC; 4-HPR 6 μM + L-threo-sphinganine 2 μM
Reply: number alone, nothing else.

CCCCCCCCC[C@H](O)[C@@H](N)CO [C12]; 0.996

Query :: Bench note: what Fa did CCCCCCCCCCCCCC[C@H](O)[C@@H](N)CO [C17, (2S,3S)-2-amino-1,3-heptadecanediol] show?
Result :: 0.991

Query :: Bench note: what Fa did CCCCCCCCCCCCCCCC[C@H](O)[C@@H](N)CO [C19, (2S,3S)-2-amino-1,3-nonadecanediol] show?
Result :: 0.999

Query :: Bench note: what Fa did CCCCCCCCCCCCCCCCC[C@H](O)[C@@H](N)CO [C20, (2S,3S)-2-amino-1,3-icosanediol] show?
Result :: 0.993

Query :: Bench note: what Fa did CCCCCCCCCCCCCCC[C@H](O)[C@@H](N)CO [C18, (2S,3S)-2-amino-1,3-octadecanediol, reference compound] show?
Result :: 0.998

###

List of Fa (fraction affected) values.
# Tested on: T98G Glioblastoma multiforme cell line
# experiment notes: DIMSCAN cytotoxicity, fenretinide + L-threo-sphinganines 3:1 (Example B6)
# Format: cell-based, human
# experimental setup: 4-HPR 1.5 μM + L-threo-sphinganine 0.5 μM, 96 h
Reply: number alone, nothing else.

CCCCCCCCCCCCCCC[C@H](O)[C@@H](N)CO [C18, (2S,3S)-2-amino-1,3-octadecanediol, reference compound]; 0.657

Query :: Bench note: what Fa (fraction affected) did "CCCCCCCCCCC[C@H](O)[C@@H](N)CO" show?
Result :: 0.544

Query :: Bench note: what Fa (fraction affected) did "CCCCCCCCCCCCCCCC[C@H](O)[C@@H](N)CO" show?
Result :: 0.584

Query :: Bench note: what Fa (fraction affected) did "CCCCCCCCCCCCCCCCC[C@H](O)[C@@H](N)CO" show?
Result :: 0.397

Query :: Bench note: what Fa (fraction affected) did "CCCCCCCCCCCCCCCCCC[C@H](O)[C@@H](N)CO" show?
Result :: 0.574

Query :: Bench note: what Fa (fraction affected) did "CCCCCCCCC[C@H](O)[C@@H](N)CO" show?
Result :: 0.306

Query :: Bench note: what Fa (fraction affected) did "CCCCCCCCCCCCCC[C@H](O)[C@@H](N)CO" show?
Result :: 0.447

Query :: Bench note: what Fa (fraction affected) did "CCCCCCCCCCCC[C@H](O)[C@@H](N)CO" show?
Result :: 0.516

###

List of Fa (fraction affected) values.
# Tested on: CRL-2076 normal human fibroblast cell line
# experiment notes: DIMSCAN cytotoxicity, fenretinide + L-threo-sphinganines 3:1 (Example B1)
# Format: cell-based
# experimental setup: CRL-2076, 20% O2; 4-HPR 1.5 μM + L-threo-sphinganine 0.5 μM; 96 h

Here are 3 compounds together with their reported answers.
CCCCCCCCCCCCCCC[C@H](O)[C@@H](N)CO [C18, (2S,3S)-2-amino-1,3-octadecanediol, reference compound]; 0.20
CCCCCCCCCCCC[C@H](O)[C@@H](N)CO [C15]; 0.08
CCCCCCCCC[C@H](O)[C@@H](N)CO [C12]; 0.17

Query :: Recall the recorded Fa (fraction affected) for CCCCCCCCCCCCCC[C@H](O)[C@@H](N)CO [C17, (2S,3S)-2-amino-1,3-heptadecanediol] with CRL-2076 normal human fibroblast cell line and state it.
Result :: 0.05

Query :: Recall the recorded Fa (fraction affected) for CCCCCCCCCCC[C@H](O)[C@@H](N)CO [C14] with CRL-2076 normal human fibroblast cell line and state it.
Result :: 0.10

###

# System: CHLA-90 pediatric neuroblastoma cell line
# experiment notes: DIMSCAN cytotoxicity, fenretinide + L-threo-sphinganines 3:1 (Example B21)
# Assay type: cell-based, human
# experimental setup: 4-HPR 6 μM + L-threo-sphinganine 2 μM
observed property: Fa
Reply: number alone, nothing else.

Here are 3 compounds together with their reported answers.
CCCCCCCCCCCCCC[C@H](O)[C@@H](N)CO [C17, (2S,3S)-2-amino-1,3-heptadecanediol]; 0.999
CCCCCCCCCCCCCCC[C@H](O)[C@@H](N)CO [C18, (2S,3S)-2-amino-1,3-octadecanediol, reference compound]; 0.9993
CCCCCCCCCCCCCCCCC[C@H](O)[C@@H](N)CO [C20, (2S,3S)-2-amino-1,3-icosanediol]; 0.999

Next item in the queue.
Query :: Bench note: what Fa did CCCCCCCCCCCCCCCC[C@H](O)[C@@H](N)CO [C19, (2S,3S)-2-amino-1,3-nonadecanediol] show?
Result :: 0.9993

###

# System: CHLA-90 pediatric neuroblastoma cell line
# experiment notes: DIMSCAN cytotoxicity, fenretinide + L-threo-sphinganines 3:1 (Example B21)
# Type: cell-based, human
# experimental setup: 4-HPR 6 μM + L-threo-sphinganine 2 μM
observed property: CI
Reply: number alone, nothing else.

CCCCCCCCCCCCCC[C@H](O)[C@@H](N)CO; 0.4
CCCCCCCCCCCCCCCCC[C@H](O)[C@@H](N)CO; 0.7
CCCCCCCCCCCCCCCC[C@H](O)[C@@H](N)CO; 0.1

Query :: Bench note: what CI did CCCCCCCCCCCCCCC[C@H](O)[C@@H](N)CO [C18, (2S,3S)-2-amino-1,3-octadecanediol, reference compound] show?
Result :: 0.3

###

List of Fa (fraction affected) values.
# Tested on: SJ-GBM2 Glioblastoma multiforme cell line
# experiment notes: DIMSCAN cytotoxicity, fenretinide + L-threo-sphinganines 3:1 (Example B7)
# Assay type: cell-based, human
# experimental setup: 4-HPR 9 μM + L-threo-sphinganine 3 μM, 96 h
Reply: number alone, nothing else.

Here are 2 compounds together with their reported answers.
CCCCCCCCCCCCCC[C@H](O)[C@@H](N)CO; 0.998
CCCCCCCCCCCCCCCCC[C@H](O)[C@@H](N)CO; 1.000

Next item in the queue.
Query :: Recall the recorded Fa (fraction affected) for "CCCCCCCCCCC[C@H](O)[C@@H](N)CO" with SJ-GBM2 Glioblastoma multiforme cell line and state it.
Result :: 0.820

###

# Test system: SJ-G2 Glioblastoma cell line
# experiment notes: DIMSCAN cytotoxicity, fenretinide + L-threo-sphinganines 3:1 (Example B8)
# Type: cell-based, human
# experimental setup: 4-HPR 9 μM + L-threo-sphinganine 3 μM, 96 h
observed property: CI (Combination Index)
Reply: number alone, nothing else.

CCCCCCCCCCCCCCC[C@H](O)[C@@H](N)CO [C18, (2S,3S)-2-amino-1,3-octadecanediol, reference compound]; 0.6
CCCCCCCCCCC[C@H](O)[C@@H](N)CO [C14]; 1.0
CCCCCCCCCCCC[C@H](O)[C@@H](N)CO [C15]; 1.0
CCCCCCCCC[C@H](O)[C@@H](N)CO [C12]; 0.6
CCCCCCCCCCCCCC[C@H](O)[C@@H](N)CO [C17, (2S,3S)-2-amino-1,3-heptadecanediol]; 0.8

Query :: Recall the recorded CI (Combination Index) for CCCCCCCCCCCCCCCCC[C@H](O)[C@@H](N)CO [C20, (2S,3S)-2-amino-1,3-icosanediol] with SJ-G2 Glioblastoma cell line and state it.
Result :: 0.2

Query :: Recall the recorded CI (Combination Index) for CCCCCCCCCCCCCCCC[C@H](O)[C@@H](N)CO [C19, (2S,3S)-2-amino-1,3-nonadecanediol] with SJ-G2 Glioblastoma cell line and state it.
Result :: 0.7

Query :: Recall the recorded CI (Combination Index) for CCCCCCCCCCCCCCCCCC[C@H](O)[C@@H](N)CO [C21] with SJ-G2 Glioblastoma cell line and state it.
Result :: 0.5
